The reported numbers originate from patent US9221833B2.

System: genotype 2a J6 strain NS5A gene (M31 present)
Protocol notes: Replicon assay, NS5A chimeric 2a JFH-1 replicon with 2a J6 NS5A, transient (t) or stable (s), Huh-Lunet cells
Assay type: cell-based, HCV
Condition context: Hepatitis C virus, read-out: 2a J6 (t) (nM)
Can you tell me EC50 for the items I'm about to list?
Numbers only, in nM.

// worked examples, EC50 included
COC(=O)NC(C(=O)N1CCCC1c1nc2ccc3cc4c(cc3c2[nH]1)OCc1cc(-c2cnc(C3CCCN3C(=O)C(NC(=O)O)C(C)C)[nH]2)ccc1-4)c1ccccc1 (stereo not drawn)    0.134
COC[C@H]1C[C@@H](c2ncc(-c3ccc4c(c3)COc3cc5c(ccc6nc([C@@H]7CCCN7C(=O)[C@H](NC(=O)OC)c7ccccc7)[nH]c65)cc3-4)[nH]2)N(C(=O)[C@@H](NC(=O)OC)C(C)C)C1    0.055

// next item, EC50 requested
Exercise: Look up EC50: COC[C@H]1C[C@@H](c2nc3ccc4cc5c(cc4c3[nH]2)OCc2cc(-c3cnc([C@@H]4C[C@H]6C[C@H]6N4C(=O)[C@@H](NC(=O)OC)[C@@H](C)OC)[nH]3)ccc2-5)N(C(=O)[C@H](NC(=O)OC)c2ccccc2)C1
Key: 0.035
